PROTOCOL_TEXT: method code SF-AS, from DOI: 10.1002/ps.2780410210
READOUT_LABEL: logP

Cc1cc(C)cc(C(=O)N(NC(=O)c2ccccc2)C(C)(C)C)c1 3.39
Cc1c(Cl)cccc1C(=O)N(NC(=O)c1ccccc1)C(C)(C)C 3.57
CC(C)(C)N(NC(=O)c1ccccc1)C(=O)c1c(Cl)cccc1Cl 2.56
Cc1ccccc1C(=O)N(NC(=O)c1ccccc1)C(C)(C)C 2.75
CC(C)(C)N(NC(=O)c1ccccc1)C(=O)c1ccccc1F 2.38

----------
PROTOCOL_TEXT: method code SF-AS, from DOI: 10.1002/ps.2780410210
// classify: if (logP < 3) condition met else condition not met

CSc1ccccc1C(=O)N(NC(=O)c1ccccc1)C(C)(C)C condition met
CC(C)(C)N(NC(=O)c1ccccc1)C(=O)c1cccc(C(F)(F)F)c1 condition not met
CC(C)(C)N(NC(=O)c1ccccc1)C(=O)c1c(F)cccc1F condition met
CC(C)(C)N(NC(=O)c1ccccc1)C(=O)c1cccc([N+](=O)[O-])c1 condition met
CC(C)(C)N(NC(=O)c1ccccc1)C(=O)c1cccc(F)c1 condition met
CC(C)(C)N(NC(=O)c1ccccc1)C(=O)c1ccc(Cl)c(Cl)c1 condition not met
